Target: human P2X3 receptor (Homo sapiens (Human), UniProt P56373)
Sequence (P56373 whole entry): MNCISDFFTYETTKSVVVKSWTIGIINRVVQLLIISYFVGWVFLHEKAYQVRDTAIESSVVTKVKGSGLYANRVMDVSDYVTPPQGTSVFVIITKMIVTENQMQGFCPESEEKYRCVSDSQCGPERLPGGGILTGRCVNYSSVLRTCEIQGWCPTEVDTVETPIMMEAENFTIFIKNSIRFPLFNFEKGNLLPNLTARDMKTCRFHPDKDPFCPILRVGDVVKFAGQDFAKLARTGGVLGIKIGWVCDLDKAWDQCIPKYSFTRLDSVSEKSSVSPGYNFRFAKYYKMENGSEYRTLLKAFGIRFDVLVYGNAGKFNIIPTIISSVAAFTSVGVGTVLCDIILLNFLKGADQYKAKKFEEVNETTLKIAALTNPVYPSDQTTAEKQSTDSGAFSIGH
Assay: Evaluation of human P2X3 receptor inhibitory activity (ATP-induced Fluo-3 fluorescence, FDSS 3000)
Conditions: C6BU-1 cell transfected with human P2X3 receptor gene
Label key: met means IC50 under 0.06 µM; not met means IC50 of 0.06 µM or more.

These solved cases illustrate the format of a correct answer.
> print(dat)
                  compound.structure.string  category.label
1  CC(C)Oc1ccc(Nc2ncc(NC(=O)CC3CCOCC3)c(=O)n2Cc2ccc(Cl)cc2)cc1F             met
2  CC(C)Oc1ccc(Nc2ncc(C(=O)NNC=O)c(=O)n2Cc2ccc(Cl)cc2)cc1F             met
3  Cc1ccc(Cc2c(Nc3ccc(OC(C)C)cc3)[nH]c(=O)n(Cc3ccccc3)c2=O)cc1         not met
4  CC(C)Oc1ccc(Nc2cc(=O)n(CC(C)(C)C(=O)O)c(=O)n2Cc2ccc(Cl)cc2)cc1Cl             met
5  CC(C)Oc1ccc(Nc2nc(=O)c(NC(=O)C3CCOCC3)cn2Cc2ccc(Cl)cc2)cc1F         not met
6  CC(C)Oc1ccc(Nc2ncc(NC(=O)C3COC(C)(C)OC3)c(=O)n2Cc2ccc(Cl)cc2)cc1F             met

In plain terms, does `Cc1nc2ccc(Nc3nc(=O)c(C(=O)NN(C)C)cn3Cc3ccc(Cl)cc3)cc2s1` come in under 0.06 µM for IC50?
not met

In plain terms, does `CCOC(=O)c1cn(Cc2ccc(Cl)cc2)c(Nc2ccc3nc(C)sc3c2)nc1=O` come in under 0.06 µM for IC50?
not met

---

Target: human P2X3 receptor (Homo sapiens (Human))
Experiment: Evaluation of human P2X3 receptor inhibitory activity (ATP-induced Fluo-3 fluorescence, FDSS 3000)
Conditions: C6BU-1 cell transfected with human P2X3 receptor gene
Entries and their IC50
Please state the figure in nM; there is no need to write the unit.

> print(dat)
                                   molecule  parameter  value.measured
1  CC(C)Oc1ccc(Nc2cc(=O)n(CC(CO)CO)c(=O)n2Cc2ccc(Cl)cc2)cc1Cl [I-099]       IC50               6
2  COCC(=O)Nc1cnc(Nc2ccc(OC(C)C)c(F)c2)n(Cc2ccc(Cl)cc2)c1=O [I-249]       IC50              35

Please turn your attention to the following entry.
Entry CC(C)Oc1ccc(Nc2ncc(/C=C/C(=O)O)c(=O)n2Cc2ccc(Cl)cc2)cc1Cl [I-139] ; IC50 = 331

---

Molecular target: human P2X3 receptor (Homo sapiens (Human))
Assay: Evaluation of human P2X3 receptor inhibitory activity (ATP-induced Fluo-3 fluorescence, FDSS 3000)
Details: C6BU-1 cell transfected with human P2X3 receptor gene
Label key: criterion met means IC50 under 200 nM; criterion not met means IC50 of 200 nM or more.

These solved cases illustrate the format of a correct answer.
> print(dat)
                  compound.structure.string                       experimental.target     category.label
1  CC(C)Oc1ccc(Nc2ncc(NC(=O)c3ccn(C)c(=O)c3)c(=O)n2Cc2ccc(Cl)cc2)cc1F  human P2X3 receptor (Homo sapiens (Human))      criterion met
2  Cc1nc2ccc(Nc3ncc(C)c(=O)n3Cc3ccc(Cl)cc3)cc2s1  human P2X3 receptor (Homo sapiens (Human))  criterion not met
3  Cc1nc2ccc(Nc3ncc(Br)c(=O)n3Cc3ccc(Cl)cc3)cc2s1  human P2X3 receptor (Homo sapiens (Human))  criterion not met
4  CCOC(=O)/C=C/c1cn(Cc2ccc(Cl)cc2)c(Nc2ccc(OC(C)C)c(Cl)c2)nc1=O  human P2X3 receptor (Homo sapiens (Human))  criterion not met

Could you now look at the following compound, please?
In plain terms, does `CC(C)Oc1ccc(Nc2ncc(NCC3CCOCC3)c(=O)n2Cc2ccc(Cl)cc2)cc1F` come in under 200 nM for IC50?
criterion not met
